For each entry below, report its pEC50 value.
- Target System: LXRβ ligand-binding domain (Homo sapiens, UniProt P55055, DUP175-175)
- Construct: amino acids 156-461; NP009052; made in house; host or cells: E. coli
- Sequence (P55055 with tags, fused parts or gaps DUP175-175 limits assumed): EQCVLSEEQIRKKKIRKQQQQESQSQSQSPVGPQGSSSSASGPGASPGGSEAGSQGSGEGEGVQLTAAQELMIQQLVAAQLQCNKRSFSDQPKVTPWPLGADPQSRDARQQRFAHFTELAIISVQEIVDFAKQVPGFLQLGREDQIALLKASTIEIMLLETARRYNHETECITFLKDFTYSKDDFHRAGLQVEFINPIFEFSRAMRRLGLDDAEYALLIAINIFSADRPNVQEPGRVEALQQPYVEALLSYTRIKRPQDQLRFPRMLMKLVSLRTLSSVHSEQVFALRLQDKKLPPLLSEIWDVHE
- Assay Remarks: TR-FRETβ activity assay (NCoA3 coactivator peptide recruitment)
- Format: biochemical
- Measurement Parameters: TR-FRET, 1 μM 24(S)-25-epoxycholesterol prestimulation; read-out: FRETβ (EC50 range)
pEC50: −log10 of the molar value.

# input # return recorded pEC50 for input Cc1ccc(S(=O)(=O)n2c(-c3cccc(-c4cc(C)c(C(=O)O)cc4Cl)c3)c(-c3ccsc3C#N)c3cc(F)ccc32)cc1 [Example 12]
# output 6.00 to 7.00

# input // fetch pEC50 given entry N#Cc1cccc(C#N)c1-c1c(-c2cccc(-c3c(F)cc(OCC(=O)O)cc3F)c2)n(S(=O)(=O)c2ccc(C(F)F)cc2)c2ccc(F)cc12 [3/71]
# output > 7.00

# input Quickly give me recorded pEC50 for Cc1ncc(S(=O)(=O)n2c(-c3ccccc3)c(-c3ccsc3C#N)c3ccccc32)s1 [1/42]
# output 5.00 to 6.00

# input Identify measured pEC50 corresponding to Cc1ccc(S(=O)(=O)n2c(-c3cccc(-c4cc(F)c(C(=O)O)cc4Cl)c3)c(-c3ccsc3C#N)c3cc(F)ccc32)cc1 [12/2]
# output 6.00 to 7.00

# input Read off the recorded pEC50 for Cc1ccc(S(=O)(=O)n2c(-c3ccc(/C=C/C(=O)O)s3)c(-c3ccsc3C#N)c3ccccc32)cc1 [3/19]
# output 5.00 to 6.00

# input Item Cc1ccc(S(=O)(=O)n2c(-c3cccc(-c4ccc5c(C(=O)O)n[nH]c5c4)c3)c(-c3ccsc3C#N)c3cc(F)ccc32)cc1 [12/9] : provide pEC50
# output 6.00 to 7.00

# input Give the reported pEC50 for this compound. N#Cc1sccc1-c1c(-c2ccc(F)cc2)n(S(=O)(=O)c2ccc(Cl)cc2)c2ccccc12 [26/1]
# output 5.00 to 6.00

---

- Target System: full length (FL) LXRα (Homo sapiens, UniProt Q13133)
- Construct: the full length (FL) proteins of LXRα (amino acids 1-447); NP005684; expressed in transfected cells; host or cells: HEK293
- Sequence (Q13133 1-447): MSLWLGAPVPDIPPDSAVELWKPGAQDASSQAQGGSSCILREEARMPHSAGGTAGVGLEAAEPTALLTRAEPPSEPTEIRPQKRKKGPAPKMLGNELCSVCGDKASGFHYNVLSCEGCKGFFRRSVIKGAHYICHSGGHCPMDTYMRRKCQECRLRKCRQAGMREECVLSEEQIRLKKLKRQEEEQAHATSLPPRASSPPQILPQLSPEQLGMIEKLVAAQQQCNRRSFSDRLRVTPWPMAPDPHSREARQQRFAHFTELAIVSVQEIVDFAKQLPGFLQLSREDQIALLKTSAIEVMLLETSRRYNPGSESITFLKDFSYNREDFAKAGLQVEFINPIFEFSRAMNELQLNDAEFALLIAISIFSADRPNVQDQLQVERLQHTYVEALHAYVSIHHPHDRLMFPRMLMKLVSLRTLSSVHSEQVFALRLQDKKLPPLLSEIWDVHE
- Assay Remarks: LXR Gal4 reporter transient transfection assay (FL-M2H Gal4α)
- Type: cell-based
- Measurement Parameters: HEK293 cells, full length LXRα; read-out: FL-M2H Gal4α (EC50 range)
- Experimental: The tested compounds were usually dissolved, tested and stored as 20 mM stock solutions in DMSO. […] LXRα and LXRβ activity status was determined via detection of interaction with coactivator and corepressor proteins in mammalian two-hybrid experiments (M2H). […] Interaction was monitored via activation of a coexpressed Firefly Luciferase Reporter gene under control of a promoter containing repetitive GAL4 response elements (vector pFRLuc; Stratagene). […]
Readout: EC50

# input Tell us which EC50 value is on record for Cc1ccc(S(=O)(=O)n2c(-c3cccc(-c4ccc(CO)c(S(=O)(=O)CC(=O)O)c4)c3)c(-c3ccsc3C#N)c3ccccc32)cc1
# output 1000 to 10000 nM

# input Hello, please tell me recorded EC50 for this one: N#Cc1cccc(F)c1-c1c(-c2cccc(-c3ccc(C(=O)O)cc3Cl)c2)n(S(=O)(=O)c2ccc(C(F)F)cc2)c2ccc(F)cc12
# output < 100 nM

# input Answer with the recorded EC50 for the molecule listed here: N#Cc1sccc1-c1c(-c2cccc(-c3cc(F)c(C(=O)O)cc3Cl)c2)n(S(=O)(=O)c2ccc(CF)cc2)c2ccc(F)cc12
# output < 100 nM

# input Give reported EC50 value for Cc1ccc(S(=O)(=O)n2c(-c3cccc(N4CC(C(=O)O)C4)c3)c(-c3ccsc3C#N)c3cc(F)c(F)cc32)cc1
# output 100 to 1000 nM

# input Supply measured EC50 of N#Cc1cccnc1-c1c(-c2cccc(-c3ccc(C(=O)O)cc3Cl)c2)n(S(=O)(=O)c2ccc(C(F)F)cc2)c2ccc(F)cc12 in your reply.
# output < 100 nM

# input Name the recorded EC50 of the molecule listed here: Cc1ccc(S(=O)(=O)n2c(-c3cccc(-c4ccc(C(=O)O)cc4)c3)c(-c3ccsc3C#N)c3cc(F)cc(O)c32)cc1
# output < 100 nM

# input Supply recorded EC50 for N#Cc1ccccc1-c1c(-c2cccc(-c3ccc(C(=O)O)c(O)c3Cl)c2)n(S(=O)(=O)c2ccc(C(F)F)cc2)c2ccc(F)cc12 here.
# output < 100 nM

# input Fill in EC50 for record Cc1ccc(S(=O)(=O)n2c(-c3cccc(-c4ccc(C(=O)O)nc4C)c3)c(-c3ccsc3C#N)c3cc(F)ccc32)cc1
# output < 100 nM

# input Please give measured EC50 of the following entry: N#Cc1sccc1-c1c(-c2cccc(N3CC(C(=O)O)C3)c2)n(S(=O)(=O)c2ccc3ccccc3c2)c2ccc(F)cc12
# output < 100 nM

# input Output measured EC50 for this item: N#Cc1sccc1-c1c(-c2cccc(-c3ccc(C(=O)NCCS(=O)(=O)O)cc3Cl)c2)n(S(=O)(=O)c2ccc(C(F)F)cc2)c2ccc(F)cc12
# output < 100 nM

# input Give a short answer stating reported EC50 for N#Cc1cccc(C#N)c1-c1c(-c2cccc(C3CC3C(=O)O)c2)n(S(=O)(=O)c2ccc(C(F)F)cc2)c2ccc(F)cc12 (centres unmarked) .
# output < 100 nM

# input Please look at this molecule and report its EC50: Cc1ccc(S(=O)(=O)n2c(-c3cccc(-c4cc(C(=O)O)nn4C)c3)c(-c3ccsc3C#N)c3cc(F)ccc32)cc1
# output 100 to 1000 nM

# input Please look at this molecule and report its EC50: N#Cc1cccc(C#N)c1-c1c(-c2cccc(-c3ccc(S(=O)(=O)O)cc3Cl)c2)n(S(=O)(=O)c2ccc(C(F)F)cc2)c2ccc(F)cc12
# output < 100 nM

# input Provide measured EC50 value, entry: Cc1ccc(S(=O)(=O)n2c(-c3cccc(N4CC(C(=O)O)C4)c3)c(-c3ccsc3C#N)c3cc(C#N)ccc32)cc1
# output 100 to 1000 nM

# input Check the records and state EC50 for N#Cc1cncc(C#N)c1-c1c(-c2cccc(-c3ccc(C(=O)O)cc3Cl)c2)n(S(=O)(=O)c2ccc(C(F)F)cc2)c2ccc(F)cc12
# output < 100 nM

# input Tell me measured EC50 for Cc1ccc(S(=O)(=O)n2c(-c3cccc(N4CC(C(=O)O)C4)c3)c(-c3ccsc3C#N)c3cc(F)c(Cl)cc32)cc1 please.
# output 100 to 1000 nM

# input Identify measured EC50 corresponding to Cc1ccc(S(=O)(=O)n2c(-c3cccc(C4CC4C(=O)O)c3)c(-c3ccsc3C#N)c3cccnc32)cc1 (centres unmarked)
# output 100 to 1000 nM

# input Specify measured EC50 for COc1cc(F)cc2c(-c3ccsc3C#N)c(-c3cccc(-c4ccc(C(=O)O)cc4)c3)n(S(=O)(=O)c3ccc(C)cc3)c12 .
# output < 100 nM

# input State, in one line, measured EC50 of Cc1ccc(S(=O)(=O)n2c(-c3cccc(-c4ccc(C(=O)O)cc4Cl)c3)c(-c3ccsc3C#N)c3cc(F)ccc32)cc1
# output < 100 nM

# input Identify measured EC50 corresponding to O=C(O)c1ccc(-c2cccc(-c3c(-c4ncccc4OC(F)F)c4cc(F)ccc4n3S(=O)(=O)c3ccc(C(F)F)cc3)c2)c(Cl)c1
# output < 100 nM

# input Fill in reported EC50 for this entry: N#Cc1cccc(C#N)c1-c1c(-c2cccc(-c3ccc(C(=O)NCC(=O)O)cc3Cl)c2)n(S(=O)(=O)c2ccc(C(F)F)cc2)c2ccc(F)cc12
# output < 100 nM

# input Give reported EC50 value for Cc1ccc(S(=O)(=O)n2c(-c3cccc(-c4ccc(C(C)(O)C(=O)O)cc4)c3)c(-c3ccsc3C#N)c3cc(F)ccc32)cc1 (centres unmarked)
# output < 100 nM

# input Provide only the value of recorded EC50 for Cc1ccc(S(=O)(=O)n2c(-c3cccc(C45CC(C(=O)O)(C4)C5)c3)c(-c3ccsc3C#N)c3ccccc32)cc1
# output 100 to 1000 nM

# input Report measured EC50; entry is N#Cc1sccc1-c1c(-c2cccc(-c3ccc(C(=O)O)cc3Cl)c2)n(S(=O)(=O)c2ccc(F)cc2)c2ccc(F)cc12
# output < 100 nM

# input Determine from records and report EC50 for N#Cc1cccc(C#N)c1-c1c(-c2cccc(C34CCC(C(=O)O)(CC3)CC4)c2)n(S(=O)(=O)c2ccc(C(F)F)cc2)c2ccc(F)cc12
# output < 100 nM

# input Note EC50 for the molecule shown: Cc1ccc(S(=O)(=O)n2c(-c3cccc(-c4ccc(C(=O)O)cc4Cl)c3)c(-c3cccc(F)c3C#N)c3cc(F)ccc32)cc1
# output < 100 nM
